- Tested on: L. donovani intracellular amastigotes in B10R cells
- PROTOCOL DESCRIPTION: UCSD L. donovani infection assay (Assay Conditions D)
- Format: cell-based
- CONDITION SET: Leishmania donovani
pIC50: −log10 of the molar value.

COMPOUND	pIC50
Cc1cc(F)ccc1C1c2c(CC(C)C)n[nH]c2C(=O)N1c1ccc(Br)cc1 (centres unmarked)	7.00
COc1ccccc1C1c2c(CC(C)C)n[nH]c2C(=O)N1c1ccc(N(C)C)cc1 (centres unmarked)	7.00
Cc1cc(F)ccc1C1c2c(CC(C)C)n[nH]c2C(=O)N1c1ccc2ncnn2c1 (centres unmarked)	6.05
COc1ccc(N2C(=O)c3[nH]nc(CC(C)C)c3C2c2ccc(F)cc2)cc1F (centres unmarked)	6.22
COc1ccc(N2C(=O)c3[nH]nc(CC(C)C)c3C2c2ccc(F)cn2)cc1 (centres unmarked)	5.47
CC(C)Cc1n[nH]c2c1C(c1ccc(F)cc1)N(c1ccc3c(c1)OCO3)C2=O (centres unmarked)	6.52
COc1ccc(N2C(=O)c3[nH]nc(CC(C)C)c3C2c2ccc(F)cc2C)cc1F (centres unmarked)	6.70
CC(C)Cc1n[nH]c2c1C(c1ccccc1Cl)N(c1ccc(N(C)C)cc1)C2=O (centres unmarked)	6.52
